- Assay system: T1, human LAG-3 on cells (HEK293-hLAG-3 stable cell line) (human, UniProt P18627 23-525)
- T1 sequence: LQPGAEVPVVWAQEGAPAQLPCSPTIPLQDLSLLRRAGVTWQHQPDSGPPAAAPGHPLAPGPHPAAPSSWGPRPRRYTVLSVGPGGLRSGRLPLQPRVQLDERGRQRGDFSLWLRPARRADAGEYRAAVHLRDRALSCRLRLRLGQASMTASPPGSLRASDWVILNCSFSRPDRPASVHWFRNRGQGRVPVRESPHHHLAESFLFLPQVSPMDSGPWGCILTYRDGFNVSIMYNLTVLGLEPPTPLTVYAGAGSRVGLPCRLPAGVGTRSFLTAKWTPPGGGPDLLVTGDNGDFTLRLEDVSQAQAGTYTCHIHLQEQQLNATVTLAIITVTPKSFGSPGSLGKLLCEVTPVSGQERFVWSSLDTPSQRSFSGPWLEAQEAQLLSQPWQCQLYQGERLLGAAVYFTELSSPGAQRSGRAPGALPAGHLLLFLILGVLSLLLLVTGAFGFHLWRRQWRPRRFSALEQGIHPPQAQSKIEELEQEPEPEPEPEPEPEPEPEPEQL
- Protocol: FACS, HEK293-hLAG-3, antibody 0.000 nM
Quantity name: Mean fluorescence intensity
Form rule: numeric answer, no unit written next to it.

# input Record request: Mean fluorescence intensity value, item 105F1E10 mouse-human chimeric antibody (antibody, V domains shown, also called mAb009-105F1E10) VH: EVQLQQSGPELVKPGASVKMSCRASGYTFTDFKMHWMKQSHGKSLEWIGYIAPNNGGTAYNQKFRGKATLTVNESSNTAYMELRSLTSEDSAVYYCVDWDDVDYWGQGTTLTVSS VL: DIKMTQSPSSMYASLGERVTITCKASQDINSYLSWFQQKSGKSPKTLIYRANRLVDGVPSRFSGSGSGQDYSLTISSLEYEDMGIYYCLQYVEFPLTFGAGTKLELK
# output 2.6
